Provenance of the data: PubChem BioAssay AID743279

Experiment: qHTS for Inhibitors of Inflammasome Signaling: IL-1-beta AlphaLISA Primary Screen; note: % is set by controls: 0 for no effect and ±100 for the full control effect
Details: THP-1 LPS/ATP IL-1B secretion, 16 h; at 57.5 µM, hits give low values
Among all 360,000 compounds or so, about 17,000 (4.7%) were called active. Inconclusive results (about 5%) are left out. For the sample, actives were picked, then their nearest neighbours and some compounds at random.
OBSERVATION_TYPE: activity change

## Input Looking for the measured activity change of Cc1cccc(C)c1-n1nnnc1C1(C)CCC(=O)N1CCOc1ccccc1 (configuration not stated) , can you help?
## Output 33.1% (inactive)

## Input Ok, now O=C(NCc1ccco1)/C(=C\c1cccc([N+](=O)[O-])c1)NC(=O)c1ccco1
## Output 29.6% (inactive)

## Input Ok, now COc1ccc(OC)c(C2C3=C(N=c4s/c(=C\c5cccc(O)c5)c(=O)n42)c2ccccc2CC3)c1 (configuration not stated)
## Output -55.4% (active)

## Input Ok, now O=C1CCC(C(=O)OCC(=O)Nc2ccc(OC(F)F)cc2)=NN1
## Output -2.22% (inactive)

## Input Ok, now CCN1C(=O)[C@H]2[C@@H](c3ccc(C(F)(F)F)cc3)N[C@]3(CCCN(Cc4ccc(Br)cc4)C3=O)[C@H]2C1=O
## Output -19.9% (inactive)

## Input Ok, now CCCCCCCCCCCCCCCC(=O)OC/C=C(C)/C=C/C=C(C)/C=C/C1=C(C)CCCC1(C)C
## Output -8.52% (inactive)

## Input Ok, now Cc1cc(NC(=O)CCC(=O)N(CC(=O)NC2CCCC2)c2ccc(F)cc2)no1
## Output 8.19% (inactive)

## Input Ok, now COC(=O)[C@]12CCCCC=C1N(Cc1ccccc1)C(=O)[C@H](CC(=O)NCc1ccc(C)o1)C2
## Output 42.5% (inactive)

## Input Ok, now CC(=O)N1C[C@@H](CO)[C@@H](N(C)C(=O)c2ccco2)C[C@H]1c1ccccc1
## Output 11.5% (inactive)

## Input Ok, now COc1ccc(S(=O)(=O)N2CCOCC2)cc1NC(=O)COc1ccccc1
## Output 6.58% (inactive)

## Input Ok, now Cc1cccc(C2c3c(n(C)c(=O)n(C)c3=O)N=C3c4ccccc4C(=O)C32)c1 (configuration not stated)
## Output 13.5% (inactive)

## Input Ok, now O=C(Cc1ccc(Cl)cc1)c1ccccc1
## Output -14.1% (inactive)

## Input Ok, now N#Cc1ccc(-c2ccc3nccn3c2)cc1
## Output 13.1% (inactive)

## Input Ok, now Cc1cc(-c2nnc(SCC(=O)Nc3ccc(F)cc3)n2N)n[nH]1
## Output 20.7% (inactive)

## Input Ok, now Cc1cc(NC(=O)CCC(=O)N(c2cccc(F)c2)C(C(=O)NC2CCCC2)c2ccncc2)no1 (configuration not stated)
## Output 10.2% (inactive)

## Input Ok, now CC1(C(=O)NS(=O)(=O)C2CC2)CCCN(C(=O)CSc2ccccc2)C1 (configuration not stated)
## Output 10.6% (inactive)

## Input Ok, now COc1cc(C#Cc2ccc3cc(CCCO)oc(=O)c3c2)cc(OC)c1
## Output 0% (inactive)

## Input Ok, now COc1ccc(Nc2ncnc3sc(C)cc23)cc1
## Output 1.88% (inactive)

## Input Ok, now CCCCC[C@H](C)N1C[C@@H](COCc2ccccc2)Oc2cc(N3CCC[C@@H]3CO)ccc2S1(=O)=O
## Output 0.594% (inactive)

## Input Ok, now c1ccc(-c2c[nH]c(-c3ccccc3)c2)cc1
## Output 14% (inactive)

## Input Ok, now CN[C@H]1C[C@H]2c3cc(Oc4ccccc4C)ccc3CCN2C(=O)[C@H]1[C@H](C)O
## Output -11% (inactive)

## Input Ok, now COC(=O)C(Cc1c[nH]c2ccccc12)NC(=O)CCNC(=O)c1ccco1 (configuration not stated)
## Output 19.3% (inactive)

## Input Ok, now O=C(CNC(=O)N1CC(=O)Nc2ccccc21)Nc1ccc(Br)cc1F
## Output 16.8% (inactive)

## Input Ok, now CCOC(=O)C1=C(C)N=c2s/c(=C\C(=O)OC)c(=O)n2C1c1ccc(OC)cc1 (configuration not stated)
## Output 10.3% (inactive)

## Input Ok, now Cc1cccc(CN2CCN(C3CN(Cc4cn(Cc5cc(C)cc(C)c5)nn4)S(=O)(=O)C3)CC2)c1 (configuration not stated)
## Output -18.8% (inactive)

## Input Ok, now COc1cccc(-c2cnc(C(O)c3ccccc3OC)[nH]2)c1 (configuration not stated)
## Output 26.3% (inactive)

## Input Ok, now Cn1cccc1/C=N/NC(=O)c1ccc(OC(F)(F)C(F)F)cc1
## Output 81.3% (inactive)

## Input Ok, now Cn1nccc1NC(=O)Nc1ccc(OC(F)(F)F)cc1
## Output 1.91% (inactive)

## Input Ok, now CC(C)c1ccc(-c2nn[nH]n2)cc1
## Output -4.8% (inactive)

## Input Ok, now O=C(OCC(=O)c1c[nH]c2ccccc12)c1cccc(O)c1
## Output -4.98% (inactive)

## Input Ok, now CCn1ncc(C2=NOC(C(=O)N3CCN(c4ccccc4)CC3)C2)c1C (configuration not stated)
## Output 3.63% (inactive)

## Input Ok, now COC(=O)COc1ccc(S(=O)(=O)N2CCOCC2)cc1
## Output -50.5% (active)

## Input Ok, now Cc1cn(C2CC(O)C(CO)O2)c(=O)n(CCCc2ccccc2)c1=O (configuration not stated)
## Output 0% (inactive)

## Input Ok, now CC(C)(C)c1ccc(/C=C/C(=O)Nc2ncccn2)cc1
## Output 0% (inactive)

## Input Ok, now Nc1ccccc1-c1nc2ccncc2[nH]1
## Output -6.01% (inactive)

## Input Ok, now CCCn1nnnc1NC(=O)COc1ccc(Cl)cc1C
## Output -5.09% (inactive)

## Input Ok, now COC(=O)[C@H](Cc1ccccc1)NC(=O)Nc1ccc(S(N)(=O)=O)cc1
## Output 9.1% (inactive)

## Input Ok, now COc1cccc(-c2cnc3c(NC(C)=O)cc(-c4cccc(NC(C)=O)c4)cn23)c1
## Output 10.8% (inactive)

## Input Ok, now O=C(CNC(=O)c1ccc(-c2ccccc2)cc1)OCc1ccc(Cl)cc1
## Output 18.8% (inactive)

## Input Ok, now Cc1ccc([C@H]2C[C@H](O)[C@@H](n3cc(COC(=O)c4ccccc4)nn3)CN2CC2CCCCC2)cc1
## Output -1.43% (inactive)

## Input Ok, now CC(C)(C)N1C(=O)c2c(C(=O)OCc3ccccc3)[nH]c(-c3ccccc3)c2C1=O
## Output 11.9% (inactive)

###

Assay: qHTS for Inhibitors of Inflammasome Signaling: IL-1-beta AlphaLISA Primary Screen
Conditions: THP-1 LPS/ATP IL-1B secretion, 16 h; at 57.5 µM, hits give low values
The campaign covered roughly 360,000 compounds. About 17,000 (4.7%) were called active. Roughly 5% stayed inconclusive and do not appear here. Only a selection was taken, and actives are over-represented in it overall.
Consider the following compounds; for each one, report its activity change.
Response body: numeric value in %, unit text excluded.

## Input Looking for the measured activity change of CCOC(=O)c1oc2ccccc2c1NC(=O)c1cccs1 , can you help?
## Output -2.68

## Input Ok, now O=C(N[C@@H](Cc1ccccc1)C(=O)OCc1ccccc1)c1nc[nH]c1C(=O)NC1CCNCC1
## Output -10

## Input Ok, now COC(=O)[C@@]1(Cc2ccc(F)cc2)[C@H]2c3cc(C(=O)N(C)C)n(CCc4c[nH]c5ccc(OC)cc45)c3C[C@H]2CN1C(=O)c1ccccc1
## Output -25.7

## Input Ok, now CC(C)(O)C#Cc1ccc(CN2CCC(CO)(CCc3ccccc3)CC2)cc1
## Output -1.38

## Input Ok, now CC1CCCCC12NC(=O)N(CC(=O)OCC(=O)NCc1ccc(F)cc1)C2=O (stereo not given)
## Output 28

## Input Ok, now CCNC(=O)CCc1nc(-c2ccc(C(C)(C)C)cc2)no1
## Output -3.31

## Input Ok, now CCc1cccc(C)c1NC(=O)COC(=O)CNC(=O)c1cccs1
## Output 16.5

## Input Ok, now C[C@]12CC[C@H](O)CC1=CCC1C2CC[C@@]2(C)C1CC[C@@H]2NC(=O)CCC(=O)O (stereo not given in full)
## Output 14.7

## Input Ok, now O=C(NCc1cccnc1)c1ccc2nc([C@@H]3O[C@H](CO)[C@H](O)[C@H](O)[C@H]3O)[nH]c2c1
## Output 2.47

## Input Ok, now CCc1c(C)sc(NC(=O)c2cccs2)c1C(N)=O
## Output -92.1

###

Assay: qHTS for Inhibitors of Inflammasome Signaling: IL-1-beta AlphaLISA Primary Screen
Settings: THP-1 LPS/ATP IL-1B secretion, 16 h; at 57.5 µM, hits give low values
Screen size: about 360,000 compounds; about 17,000 (4.7%) were called active. Inconclusive results (about 5%) are left out. This excerpt belongs to a sample that is enriched for actives.
Consider the following molecules; for each one, report its activity change.
Response body: numeric value in %, unit text excluded.

## Input Looking for the measured activity change of CCCNC(=O)C1(C)CCCN(Cc2c(C)nn(-c3ccccc3)c2C)C1 (stereo unspecified) , can you help?
## Output 0

## Input Ok, now C=CCn1c(CCNC(=O)c2ccccc2F)nnc1SCC(=O)Nc1ccc(OC)cc1
## Output 0.328

## Input Ok, now CCc1ccccc1NC(=O)CSc1nnc([C@@H](NC(=O)OC(C)(C)C)C(C)CC)o1 (stereo partly specified)
## Output 9.72

## Input Ok, now COc1cc(SC#N)ccc1N=Cc1c(C)[nH]n(-c2ccc(C)cc2)c1=O
## Output -83.8

## Input Ok, now Clc1c(OCCCn2ccnc2)ccc2ccccc12
## Output -77

## Input Ok, now CSCCC(=O)N1CCCC(CNC(=O)c2ccccc2Cl)C1 (stereo unspecified)
## Output 27.1

## Input Ok, now C[C@@H](NC(=O)OC(C)(C)C)c1nnc(S(=O)(=O)Cc2ccccc2)o1
## Output -70.3

## Input Ok, now Cc1cc(OCC(=O)Nc2nccs2)c2c(C)c(C)c(=O)oc2c1
## Output 6.37

## Input Ok, now CCc1ccc(OC2(C)CCN(CCOc3ccc(C)cc3)C2)cc1 (stereo unspecified)
## Output -10

## Input Ok, now N#CCCN(C(=S)Nc1ccc(Cl)c(Cl)c1)C1CCCCC1
## Output -17.1

## Input Ok, now Cc1ccsc1CNn1cnnc1SCc1ccccc1F
## Output -6.1
